Assay: Solubility in 50 mM phosphate buffer at pH 7.4
Type: physicochemical
Conditions: 50 mM phosphate buffer, pH 7.4, aqueous buffer
value-kind: solubility (µM)

(I) CCn1c(-c2nonc2N)nc2c(C#CC(C)(C)O)ncc(OCCC3CSCCN3)c21 (stereo not shown)
(II) CCn1c(-c2nonc2N)nc2c(C#CC(C)(C)O)ncc(OCCCN)c21.O=C(O)C(F)(F)F
Query block: Could you kindly indicate whether I or II has the higher solubility value? Pick one; state its label.
Result block: II

---

Tested on: BT474 (human breast carcinoma)
Experiment: Methylene Blue Growth Inhibition assay, BT474
Assay type: cell-based
Conditions: BT-474, 72 h, BT474, 3 days
pIC50: −log10 of the molar value.
value-kind: pIC50

(I) CCn1c(-c2nonc2N)nc2c(C#CC(C)(C)O)ncc(OCC3CCNCC3)c21.O=C(O)C(F)(F)F [Compound Y, trifluoroacetate]
(II) CCn1c(-c2nonc2N)nc2cncc(OC3CCNCC3)c21.O=C(O)C(F)(F)F [Compound U, trifluoroacetate]
(III) CCn1c(-c2nonc2N)nc2c(C#CC(C)(C)O)ncc(OCCCNCCc3ccc(OC)cc3)c21
Query block: Order required: smallest reported pIC50 first, largest last, for all compounds above. // format: requested-order list of labels
Result block: II, I, III

---

Tested on: BT474 (human breast carcinoma)
Assay: Methylene Blue Growth Inhibition assay, BT474
Type: cell-based
Conditions: BT-474, 72 h, BT474, 3 days
pIC50: −log10 of the molar value.
value-kind: pIC50

Worked cases, pIC50 given:
INSERT INTO assay_data (compound, assay_target, value_kind, value) VALUES
  ('CCn1c(-c2nonc2N)nc2c(C#CC(C)(C)O)ncc(OCC[C@@H]3CCCN3)c21 [Example 1]', 'BT474 (human breast carcinoma)', 'pIC50', 6.75),
  ('CCn1c(-c2nonc2N)nc2c(C#CC(C)(C)O)ncc(OCCCN)c21.O=C(O)C(F)(F)F [Compound X, trifluoroacetate]', 'BT474 (human breast carcinoma)', 'pIC50', 6.62),
  ('CCn1c(-c2nonc2N)nc2c(-c3ccccc3)ncc(OCC3CCCNC3)c21.O=C(O)C(F)(F)F (stereo not shown) [Compound V, trifluoroacetate]', 'BT474 (human breast carcinoma)', 'pIC50', 5.73);

(A) CCn1c(-c2nonc2N)nc2c(C#CC(C)(C)O)ncc(OCCC3CSCCN3)c21 (stereo not shown) [Example 3]
(B) CCn1c(-c2nonc2N)nc2c(C#CC(C)(C)O)ncc(OCC[C@@H]3CCCCN3)c21 [Example 2]
(C) CCn1c(-c2nonc2N)nc2c(C#CC(C)(C)O)ncc(OCCCCN)c21.O=C(O)C(F)(F)F [Compound W, trifluoroacetate]
Query block: Rank descending by pIC50. // format: requested-order list of labels
Result block: A, B, C

---

Test: Solubility in 50 mM phosphate buffer at pH 7.4
Assay type: physicochemical
Settings: 50 mM phosphate buffer, pH 7.4, aqueous buffer
value-kind: solubility (µM)

INSERT INTO results (compound, value_kind, value) VALUES
  ('CCn1c(-c2nonc2N)nc2c(C#CC(C)(C)O)ncc(OCC[C@@H]3CCCN3)c21', 'solubility', 222),
  ('CCn1c(-c2nonc2N)nc2c(C#CC(C)(C)O)ncc(OCCCCN)c21.O=C(O)C(F)(F)F', 'solubility', 210);

(1) CCn1c(-c2nonc2N)nc2cncc(OC3CCNCC3)c21.O=C(O)C(F)(F)F
(2) CCn1c(-c2nonc2N)nc2c(C#CC(C)(C)O)ncc(OCCCNCCc3ccc(OC)cc3)c21
(3) CCn1c(-c2nonc2N)nc2c(-c3ccccc3)ncc(OCC3CCCNC3)c21.O=C(O)C(F)(F)F (centres unmarked)
Query block: Rank descending by solubility. // format: requested-order list of labels
Result block: 1, 2, 3
(1: 200 µM, 2: 37 µM, 3: 9 µM)
